These measurements were taken from patent US12071436B2.

- assay name: Plasma pharmacokinetics and liver distribution study in female BALB/c mice
- Assay type: in vivo, mouse
- condition description: female, BALB/c, mouse; ip, Dose: 50 mg/kg, liver; read-out: PK (ip, plasma/liver) Tmax, liver
- Protocol: A plasma pharmacokinetics and liver distribution study of selected compounds, including Pyrrolopyridine-008 (2015-foleyc-216), Pyrrolopyridine-D20-ent (2015-foleyc-217), and Pyrrolopyridine-M03 (2015-foleyc-218), in female BALB/c mice was conducted following a single intraperitoneal and oral administration. […] All samples were processed for analysis by protein precipitation using acetonitrile and analyzed with fit-for-purpose LC-MS/MS method (LLOQ: 2.01 ng/mL for plasma and 50.30 ng/g for liver). […]
readout kind: Tmax
Answer by giving the amount and then stating its unit.

For reference, reported Tmax for CC(C)NC(=O)N1Cc2cc(C(=O)NCC(F)(F)F)nc(-c3cccc(-c4cc5ccccc5o4)c3)c2[C@H]1CCO [drawing 328] stands at 6 min

* * *

- assay name: Plasma stability
- Format: in vitro ADME
- condition description: C57BL/6; 10 μM in undiluted mouse plasma, 37° C., out to four hours; read-out: plasma stability (t1/2, mouse)
- Experimental: To evaluate the plasma stability of selected compounds, 10 μM of each selected compound was incubated with undiluted plasma. Plasma was freshly obtained from C57BBl\6 mice drawn in the vivarium and used immediately. […] At the end of the assay, the samples were centrifuged through a Millipore Multiscreen Solvinter 0.45 micron low binding PTFE hydrophilic filter plate and analyzed by LC-MS/MS. […]
Please respond with reported half-life at 10 μM for every item in the list.

For reference, reported half-life at 10 μM for CN(C)CC#Cc1cccc(-c2nc(C(=O)NCc3ccc4c(c3)OCO4)cc3c2[C@@H](CCO)N([S@+]([O-])C(C)(C)C)C3)c1 stands at > 4 h

For reference, reported half-life at 10 μM for CN(C)CC#Cc1cccc(-c2nc(C(=O)N[C@@H]3CCN(Cc4ccccc4)C3)cc3c2[C@@H](CCO)N([S@+]([O-])C(C)(C)C)C3)c1 stands at > 4 h

* * *

- assay name: Metabolic stability in mice liver microsomes (MLM), 0.25 mg/mL
- Assay type: in vitro ADME
- condition description: mouse, pH 7.4, 1 μM compound, 0.25 mg/mL microsomes, NADPH, read-out: microsomal stability (t1/2, mouse): 0.25 mg/mL hepatic microsomes
Please respond with reported half-life at 1 μM for every item in the list.
Unit min implied. Number only.

For reference, reported half-life at 1 μM for CN(C)CC#Cc1cccc(-c2nc(C(=O)NCc3ccc4c(c3)OCO4)cc3c2[C@@H](CCO)N([S@+]([O-])C(C)(C)C)C3)c1 stands at 46

For reference, reported half-life at 1 μM for CN(C)CC#Cc1cccc(-c2nc(C(=O)N[C@@H]3CCN(Cc4ccccc4)C3)cc3c2[C@@H](CCO)N([S@+]([O-])C(C)(C)C)C3)c1 stands at 13

* * *

Please respond with reported Tmax for every item in the list.
- assay name: Plasma pharmacokinetics and liver distribution study in female BALB/c mice
- Type: in vivo, mouse
- condition description: mouse, plasma; single oral dose, 100 mg/kg, female BALB/c mice; read-out: Tmax (plasma)
Unit min implied. Number only.

For reference, reported Tmax for CC(C)(C)[S@@+]([O-])N1Cc2cc(C(=O)NCc3ccc4c(c3)OCO4)nc(-c3ccccc3)c2[C@H]1CCO [2015-foleyc-217] stands at 30

For reference, reported Tmax for CCOC(=O)c1cc2c(c(-c3ccccc3)n1)[C@@H](CCO)N([S@+]([O-])C(C)(C)C)C2 [Tan002-O12] stands at 30

For reference, reported Tmax for CC(C)(C)[S@@+]([O-])N1Cc2cc(C(=O)NCc3ccccc3F)nc(-c3ccccc3)c2[C@H]1CCO [2015-foleyc-218] stands at 30
